The reported numbers originate from ChEMBL document CHEMBL1137636.

# Tested on: Haemophilus influenzae
# ASSAY NOTES: Antibacterial activity against genetically beta-lactamase-negative ampicillin-susceptible Haemophilus influenzae type b without amino acid substitutions in ftsI gene and bla gene by broth microdilution method
# Assay type: functional
MEASUREMENT TYPE: MIC50

Exercise: Can you look up the measured MIC50 of C[C@@H](O)[C@H]1C(=O)N2C(C(=O)O)=C(S[C@@H]3CN[C@H](C(=O)N(C)C)C3)[C@H](C)[C@H]12 for me?
Key: ≤ 0.06 µg/mL

Exercise: Can you look up the measured MIC50 of C[C@H]1COc2c(N3CCN(C)CC3)c(F)cc3c(=O)c(C(=O)O)cn1c23.C[C@H]1COc2c(N3CCN(C)CC3)c(F)cc3c(=O)c(C(=O)O)cn1c23.O for me?
Key: ≤ 0.06 µg/mL

Exercise: Can you look up the measured MIC50 of CO/N=C(\C(=O)N[C@@H]1C(=O)N2C(C(=O)OCOC(=O)C(C)(C)C)=C(/C=C\c3scnc3C)CS[C@H]12)c1csc(N)n1 for me?
Key: ≤ 0.06 µg/mL
